Target: PKD2L1 (polycystic kidney disease 2-like 1 channel) (Mus musculus)
Construct: mouse PKD2L1 in pCINeo/IRES-GFP, transiently expressed in HEK293T cells; no PKD1L3 co-expression mentioned; homotetramer (known biology)
Sequence (A2A259 1-760): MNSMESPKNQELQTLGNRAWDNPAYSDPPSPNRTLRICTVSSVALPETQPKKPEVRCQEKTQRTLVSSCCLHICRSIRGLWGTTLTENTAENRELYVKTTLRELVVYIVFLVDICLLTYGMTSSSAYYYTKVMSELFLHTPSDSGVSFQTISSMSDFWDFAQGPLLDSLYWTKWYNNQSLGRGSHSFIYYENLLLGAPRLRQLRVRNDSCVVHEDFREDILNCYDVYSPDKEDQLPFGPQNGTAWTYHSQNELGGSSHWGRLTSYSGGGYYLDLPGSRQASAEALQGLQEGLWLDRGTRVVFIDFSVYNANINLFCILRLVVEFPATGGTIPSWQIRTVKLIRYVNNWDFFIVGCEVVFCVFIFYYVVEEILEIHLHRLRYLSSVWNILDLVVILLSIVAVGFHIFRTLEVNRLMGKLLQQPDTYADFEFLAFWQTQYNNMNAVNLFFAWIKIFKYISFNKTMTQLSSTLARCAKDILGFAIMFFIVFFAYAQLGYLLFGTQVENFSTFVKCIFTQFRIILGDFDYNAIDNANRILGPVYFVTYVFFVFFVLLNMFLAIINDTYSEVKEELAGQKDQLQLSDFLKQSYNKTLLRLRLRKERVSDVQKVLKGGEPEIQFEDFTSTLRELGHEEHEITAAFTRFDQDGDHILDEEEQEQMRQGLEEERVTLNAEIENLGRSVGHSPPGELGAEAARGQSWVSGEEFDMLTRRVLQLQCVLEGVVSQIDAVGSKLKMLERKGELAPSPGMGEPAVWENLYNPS
Assay: whole-cell patch clamp, channel activity (NPo) at -60 mV
RECORDED ENDPOINT: EC50

Param request: EC50 | system PKD2L1 (polycystic kidney disease 2-like 1 channel) (Mus musculus) | item C=C[C@H]1C[N@@]2CC[C@H]1C[C@H]2[C@H](O)c1ccnc2ccc(OC)cc12 [quinine] 33 µM
